# Lookup of reported IC50 keyed by entry
assay: Inhibition of Spanish V-line rabbit liver alpha-amylase using starch as substrate after 5 mins by spectrophotometry; design: species or system Oryctolagus cuniculus
Quick reminder: number only, in µM, skip the unit.

S=C1N=C(c2ccccc2)C(c2ccccc2)=N1	47

Turning now to a further compound:
Inquiry: Requested field: IC50. Item: Sc1nnc(-c2ccccc2)n1-c1ccccc1
Reply text: 73

###

test: Competitive inhibition of Spanish V-line rabbit liver alpha-glucosidase using maltose as substrate by Lineweaver-Burk plot analysis; design: species or system Oryctolagus cuniculus
measured-metric: pKi
Recall that pKi is obtained by taking minus log10 of the concentration measured in molar.

Inquiry: Entry Sc1nnc(-c2ccccc2)n1-c1ccccc1 has what pKi?
Reply text: 4.38

###

test: Non-competitive inhibition of Spanish V-line rabbit liver alpha-amylase using starch as substrate by Dixon plot analysis; design: species or system Oryctolagus cuniculus
measured-metric: Ki (µM)
Write the value in µM as a bare number.

Sc1nnc(-c2ccccc2)n1-c1ccccc1	65

Attention now turns to another entry.
Inquiry: If you can, please state the reported Ki value of S=C1N=C(c2ccccc2)C(c2ccccc2)=N1 .
Reply text: 60

###

experiment: Competitive inhibition of Spanish V-line rabbit liver alpha-glucosidase using maltose as substrate by Dixon plot analysis; parameters: species or system Oryctolagus cuniculus
measured-metric: Ki

Sc1nnc(-c2ccccc2)n1-c1ccccc1	38 µM

Moving on to another compound below.
Inquiry: Quick check: Ki of Oc1ccccc1-c1nnc(S)n1-c1ccccc1 ?
Reply text: 50.8 µM

###

experiment: Inhibition of Spanish V-line rabbit liver alpha-glucosidase using maltose as substrate after 5 mins by spectrophotometry; set-up: species or system Oryctolagus cuniculus
Listed compounds paired with reported pIC50
Here pIC50 is given on a logarithmic scale as minus log10 of the concentration in mol/L.

Consider the worked cases shown below.
Oc1ccccc1-c1nnc(S)n1-c1ccccc1	3.98
S=C1N=C(c2ccccc2)C(c2ccccc2)=N1	4.25

Inquiry: Entry under review: Sc1nnc(-c2ccccc2)n1-c1ccccc1 . Reported pIC50?
Reply text: 4.17

###

assay: Non-competitive inhibition of Spanish V-line rabbit liver alpha-glucosidase using maltose as substrate by Dixon plot analysis; parameters: species or system Oryctolagus cuniculus
measured-metric: Ki (µM)
Quick reminder: number only, in µM, skip the unit.

Inquiry: Ki for S=C1N=C(c2ccccc2)C(c2ccccc2)=N1 ?
Reply text: 43

Source of measurements: ChEMBL document CHEMBL2151017
